Test system: α-Glucosidase from yeast
Assay: α-glucosidase inhibitory activity
Format: biochemical
Settings: 0.1 mM; mean ± SD (n = 3); NA: no activity
Method: S1. Determination of bioactivities […] S1.2. Determination of α-glucosidase inhibitory activity […] diluted with phosphate buffer (0.1 M, pH 6.8). […] and 4-nitrophenyl α-D-glucopyranoside (pNPG) solution (50 µL, 5 mM) were mixed and incubated in a 96-well microplate at 37 °C for 5 min. α-Glucosidase from yeast (50 µL, 0.2 U/mL) was added and incubated at 37 °C for another 30 min. […] The absorbance of mixture was measured using a microplate reader at a wavelength 405 nm. […]
α-Glucosidase Inhibition at 0.1 mM by entry:

# annotated cases, reported α-Glucosidase Inhibition at 0.1 mM shown
C[C@@H]1O[C@@H](O[C@@H]2[C@@H](O)[C@@H](O)[C@H](O[C@@H]3[C@@H](O)[C@H](OCC(=O)c4ccc(O)c(O)c4)O[C@H](CO)[C@H]3OC(=O)/C=C/c3ccc(O)cc3)O[C@H]2C)[C@H](O)[C@H](O)[C@H]1O [Compound 3] : 42.3 ± 8.7 bc %
C[C@@H]1O[C@@H](O[C@@H]2[C@@H](O)[C@H](OCc3ccccc3)O[C@H](COC(=O)/C=C/c3ccc(O)cc3)[C@H]2O)[C@H](O)[C@H](O)[C@H]1O [Compound 5] : 45.1 ± 2.5 b %
C[C@@H]1O[C@@H](O[C@@H]2[C@@H](O)[C@H](OCc3ccccc3)O[C@H](COC(=O)/C=C\c3ccc(O)cc3)[C@H]2O)[C@H](O)[C@H](O)[C@H]1O [Compound 6] : 36.5 ± 1.5 c %
CC1OC(OC2C(O)C(OCCc3ccc(O)cc3)OC(CO)C2OC(=O)C=Cc2ccc(O)cc2)C(O)C(O)C1O (centres unmarked) [Compound 10, osmanthuside D] : 19.3 ± 5.6 e %

Ask: Look up α-Glucosidase Inhibition at 0.1 mM for this molecule: C[C@@H]1O[C@@H](O[C@@H]2[C@@H](O)[C@@H](O)[C@H](O[C@@H]3[C@@H](O)[C@H](OCCc4ccc(O)cc4)O[C@H](CO)[C@H]3OC(=O)/C=C/c3ccc(O)c(O)c3)O[C@H]2C)[C@H](O)[C@H](O)[C@H]1O [Compound 9, ligurobustoside N]
Reply: 25.4 ± 4.1 d %

----------
test system: α-amylase; experiment: α-amylase inhibitory activity; assay type: biochemical; details: 0.1 mM; mean ± SD (n = 3); NA: no activity
α-Amylase Inhibition at 0.1 mM by entry:
Field format: number, assumed c %, no unit text.

CC1OC(OC2C(O)C(COC(=O)C=Cc3ccc(O)cc3)OC(OCCc3ccc(O)cc3)C2O)C(O)C(O)C1O (centres unmarked) [Compound 11, (Z)-osmanthuside B6] : 23.5

# context switch: different compound, same α-Amylase Inhibition at 0.1 mM
Ask: Look up α-Amylase Inhibition at 0.1 mM for this compound: CC1OC(OC2C(O)C(OCCc3ccc(O)cc3)OC(CO)C2OC(=O)C=Cc2ccc(O)cc2)C(O)C(O)C1O (centres unmarked) [Compound 10, osmanthuside D]
Reply: 26.1

----------
α-Amylase Inhibition at 0.1 mM by entry:
test system: α-amylase; assay: α-amylase inhibitory activity; type: biochemical; settings: 0.1 mM; mean ± SD (n = 3); NA: no activity

CC1OC(OC2C(C)OC(OC3C(O)C(OCC(O)c4ccc(O)c(O)c4)OC(CO)C3OC(=O)C=Cc3ccc(O)cc3)C(O)C2O)C(O)C(O)C1O (stereo not drawn) : 10.6 ± 2.3 f %
C[C@@H]1O[C@@H](O[C@@H]2[C@@H](O)[C@@H](O)[C@H](O[C@@H]3[C@@H](O)[C@H](OCCc4ccc(O)cc4)O[C@H](CO)[C@H]3OC(=O)/C=C/c3ccc(O)cc3)O[C@H]2C)[C@H](O)[C@H](O)[C@H]1O [Compound 7, ligupurpuroside B] : 19.9 ± 1.8 d %

Ask: What value of α-Amylase Inhibition at 0.1 mM on α-amylase does C[C@@H]1O[C@@H](O[C@@H]2[C@@H](O)[C@@H](O)[C@H](O[C@@H]3[C@@H](O)[C@H](OCCc4ccc(O)cc4)O[C@H](CO)[C@H]3OC(=O)/C=C/c3ccc(O)c(O)c3)O[C@H]2C)[C@H](O)[C@H](O)[C@H]1O [Compound 9, ligurobustoside N] have?
Reply: 15.9 ± 3.1 e %
